target system: PPP1R15A-PP1 complex (Homo sapiens, UniProt O75807)
Construct: cDNAs encoding amino acids 325-636 of PPP1R15A and 340-698 of PPP1R15B were His-tagged and cloned into pMAL-c5x; made in house; host or cells: R15A: E. coli BL21-Gold (pMAL-c5x); PP1γ: Sf9 insect cells (baculovirus, pDW464)
Sequence (O75807 325-636): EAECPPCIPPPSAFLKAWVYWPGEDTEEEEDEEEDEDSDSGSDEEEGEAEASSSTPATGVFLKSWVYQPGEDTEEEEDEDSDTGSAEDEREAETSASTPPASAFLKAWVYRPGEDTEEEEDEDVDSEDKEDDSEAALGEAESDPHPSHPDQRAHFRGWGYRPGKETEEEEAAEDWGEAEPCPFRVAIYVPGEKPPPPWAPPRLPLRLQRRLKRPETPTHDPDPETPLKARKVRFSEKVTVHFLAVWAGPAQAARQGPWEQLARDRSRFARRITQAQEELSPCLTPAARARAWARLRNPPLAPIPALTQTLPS
Sequence (P36873 whole entry partner, the tested form may be a part): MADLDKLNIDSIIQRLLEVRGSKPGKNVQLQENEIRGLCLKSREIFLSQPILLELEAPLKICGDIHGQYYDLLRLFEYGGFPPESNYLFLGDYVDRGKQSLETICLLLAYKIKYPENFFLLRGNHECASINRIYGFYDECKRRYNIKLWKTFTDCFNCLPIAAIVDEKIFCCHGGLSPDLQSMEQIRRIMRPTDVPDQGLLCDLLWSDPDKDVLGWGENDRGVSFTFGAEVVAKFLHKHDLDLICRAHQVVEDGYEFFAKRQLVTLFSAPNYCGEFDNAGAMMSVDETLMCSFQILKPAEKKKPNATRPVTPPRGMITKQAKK
experiment notes: SPR steady-state binding to R15A-PP1 holophosphatase
experimental parameters: SPR steady-state, MBP-R15A325-636-His captured on bio-PP1c, 10° C.; read-out: R15A (KD)
Please assign No whenever Kd is at or above 6 µM, and Yes whenever it is below.

Previously resolved entries follow.
[[record]]
smiles_input = "[H]/N=C(\\N)NN=Cc1ccc(Cl)c(Cl)c1"
target_system = "PPP1R15A-PP1 complex (Homo sapiens, UniProt O75807)"
label = "No"

[[record]]
smiles_input = "[H]/N=C(\\N)NN=Cc1cc(Cl)c(F)c(Cl)c1"
target_system = "PPP1R15A-PP1 complex (Homo sapiens, UniProt O75807)"
label = "No"

[[record]]
smiles_input = "[H]/N=C(\\N)NN=Cc1cc(Cl)cc(Cl)c1Cl"
target_system = "PPP1R15A-PP1 complex (Homo sapiens, UniProt O75807)"
label = "Yes"


Does this compound meet the criterion Kd < 6 µM? `[H]/N=C(\N)NN=Cc1ccc(Cl)c(F)c1`
No

Item: `[H]/N=C(\N)NN=Cc1cccc(Cl)c1`
No

Item: `[H]/N=C(\N)NN=Cc1cccnc1Cl`
Yes

Item: `[H]/N=C(\N)NN=Cc1ccc(F)c(Cl)c1Cl`
Yes

Item: `[H]/N=C(\N)NN=Cc1ccc(Cl)c(F)c1Cl`
Yes

---

target system: PPP1R15B-PP1 (Homo sapiens, UniProt Q5SWA1)
Construct: cDNAs encoding amino acids 325-636 of PPP1R15A and 340-698 of PPP1R15B were His-tagged and cloned into pMAL-c5x; made in house; host or cells: R15B: E. coli BL21-Gold (pMAL-c5x); PP1γ: Sf9 insect cells (baculovirus, pDW464)
Sequence (Q5SWA1 340-698): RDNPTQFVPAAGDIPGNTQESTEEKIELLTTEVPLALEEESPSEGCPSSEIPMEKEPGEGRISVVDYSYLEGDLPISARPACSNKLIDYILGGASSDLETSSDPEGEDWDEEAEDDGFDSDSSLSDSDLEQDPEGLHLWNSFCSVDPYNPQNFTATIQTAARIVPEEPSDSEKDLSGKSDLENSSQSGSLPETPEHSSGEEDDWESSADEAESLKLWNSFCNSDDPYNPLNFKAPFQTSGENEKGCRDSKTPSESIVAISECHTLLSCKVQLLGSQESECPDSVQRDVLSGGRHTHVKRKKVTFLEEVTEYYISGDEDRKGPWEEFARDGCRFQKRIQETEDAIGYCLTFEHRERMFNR
Sequence (P36873 whole entry partner, the tested form may be a part): as the sequence (P36873 whole entry partner, the tested form may be a part) above
experiment notes: SPR steady-state binding to R15B-PP1 holophosphatase
experimental parameters: SPR steady-state, MBP-R15B340-698-His captured on bio-PP1c, 10° C.; read-out: R15B (KD)
Give pKd for every item shown.
Give bare numbers, as −log10 of the molar value.

[[record]]
smiles_input = "[H]/N=C(\\N)NN=Cc1cc(F)c(F)cc1Cl"
measured_result = 4.76

[[record]]
smiles_input = "[H]/N=C(\\N)NN=Cc1ccc(Cl)c(F)c1Cl"
measured_result = 5.17

[[record]]
smiles_input = "[H]/N=C(\\N)NN=Cc1cccc(F)c1"
measured_result = 5.98

[[record]]
smiles_input = "[H]/N=C(\\N)NN=Cc1ccc(Cl)c(Cl)c1Cl"
measured_result = 5.04

[[record]]
smiles_input = "[H]/N=C(\\N)NN=Cc1cc(Cl)ccc1Cl"
measured_result = 4.52


Need pKd of `[H]/N=C(\N)NN=Cc1cccc(Cl)c1F` , thanks.
4.91

---

Test system: HeLa cells
experiment notes: Cell death dose response (CellTox green, IncuCyte)
Type: cell-based
experimental parameters: IncuCyte, 0-20 μM
quantity measured: Effect on cell death

Record excerpt, results attached:
[[record]]
smiles_input = "N=C(N)N/N=C/c1cc(Cl)c(Cl)c(Cl)c1"
target_system = "HeLa cells"
quantity_measured = "Effect on cell death"
measured_result = "Yes"

[[record]]
smiles_input = "[H]/N=C(\\N)NN=Cc1cc(F)c(Cl)cc1Cl"
target_system = "HeLa cells"
quantity_measured = "Effect on cell death"
measured_result = "Yes"

[[record]]
smiles_input = "[H]/N=C(\\N)NN=Cc1ccc(F)c(Cl)c1"
target_system = "HeLa cells"
quantity_measured = "Effect on cell death"
measured_result = "Yes"

[[record]]
smiles_input = "[H]/N=C(\\N)NN=Cc1ccc(Cl)nc1Cl"
target_system = "HeLa cells"
quantity_measured = "Effect on cell death"
measured_result = "No"


Could I get Effect on cell death for every one of these entries?
1. [H]/N=C(\N)NN=Cc1cccnc1Cl
2. [H]/N=C(\N)NN=Cc1ccc(F)c(Cl)c1Cl

1. No
2. Yes

Source listed as patent US11154519B2.
